molecular target: Fatty-acid amide hydrolase 1 (Rattus norvegicus); experiment: Inhibition of rat recombinant FAAH expressed in Escherichia coli
outcome.measure: IC50 (µM)

Past entries and their recorded results:
# input If you can, please state the reported IC50 value of `N#Cc1cnc(C(=O)CCc2ccc(-c3ccccc3)cc2)o1` .
# output 0.001

# input Now try `O=C(CCCCCCc1ccccc1)c1ncc(-c2cccc(-c3nnn[nH]3)n2)o1` .
# output 0.5

# input Now try `N#Cc1cnc(C(=O)CCc2ccc(COc3ccccc3)cc2)o1` .
# output 0.002

a: O=C(CCc1ccc(COc2ccccc2)cc1)c1ncco1
b: O=C(CCc1ccc(Oc2ccccc2)cc1)c1ncco1
# input Of the two listed items, a and b , which carries the larger IC50 figure? Use the label to indicate which entry you chose.
# output b
(b: 0.5 µM, a: 0.27 µM)

====

molecular target: Fatty-acid amide hydrolase 1 (Homo sapiens); experiment: Inhibition of human recombinant FAAH expressed COS7 cells; assay type: cell-based, COS-7
outcome.measure: Ki (nM)

Past entries and their recorded results:
# input If you can, please state the reported Ki value of `O=C(CCc1ccc(COc2ccccc2)cc1)c1ncc(C(F)(F)F)o1` .
# output 0.67

# input Now try `O=C(CCc1ccc(Oc2ccccc2)cc1)c1ncc(C(F)(F)F)o1` .
# output 1

1: N#Cc1cnc(C(=O)CCc2ccc(COc3ccccc3)cc2)o1
2: N#Cc1cnc(C(=O)CCc2ccc(Oc3ccccc3)cc2)o1
# input Of the two listed items, 1 and 2 , which carries the larger Ki figure? Use the label to indicate which entry you chose.
# output 2

====

molecular target: Fatty-acid amide hydrolase 1 (Rattus norvegicus, UniProt P97612); experiment: Inhibition of rat recombinant FAAH expressed in Escherichia coli
outcome.measure: IC50 (µM)

# input If you can, please state the reported IC50 value of `O=C(O)c1cccc(-c2cnc(C(=O)CCc3ccc(Oc4ccccc4)cc3)o2)n1` .
# output 0.02

# input Now try `O=C(O)c1cccc(-c2cnc(C(=O)CCCCCCc3ccccc3)o2)n1` .
# output 0.1

# input Now try `O=C(O)c1cnc(C(=O)CCCCCCc2ccccc2)o1` .
# output 0.002

# input Now try `O=C(CCc1ccc(-c2ccccc2)cc1)c1ncco1` .
# output 0.18

# input Now try `O=C(CCc1ccc(COc2ccccc2)cc1)c1ncc(-c2ccccn2)o1` .
# output 0.002

# input Now try `O=C(CCc1ccc(Oc2ccccc2)cc1)c1ncc(-c2ccccn2)o1` .
# output 0.002

A: O=C(CCc1ccc(COc2ccccc2)cc1)c1ncc(-c2cccc(-c3nnn[nH]3)n2)o1
B: O=C(O)c1cccc(-c2cnc(C(=O)CCc3ccc(-c4ccccc4)cc3)o2)n1
# input Of A and B , which shows the smaller IC50 value? Use the label to indicate which entry you chose.
# output B
(B: 0.006 µM, A: 0.18 µM)

====

target: Fatty-acid amide hydrolase 1 (Rattus norvegicus, UniProt P97612); assay: Inhibition of rat recombinant FAAH expressed in Escherichia coli
pKi: −log10 of the molar value.
outcome.measure: pKi

# input Reported pKi for Fatty-acid amide hydrolase 1 (Rattus norvegicus, UniProt P97612), given `COC(=O)c1cc(-c2cnc(C(=O)CCc3ccc(-c4ccccc4)cc3)o2)ccn1` ?
# output 8.82

I: COC(=O)c1cccc(-c2cnc(C(O)CCc3ccc(-c4ccccc4)cc3)o2)n1 (centres undefined)
II: COC(=O)c1cccc(-c2cnc(C(=O)CCc3ccc(OC4CCNCC4)cc3)o2)n1
# input Of I and II , which shows the smaller pKi value? Use the label to indicate which entry you chose.
# output I

====

Sequence of the target: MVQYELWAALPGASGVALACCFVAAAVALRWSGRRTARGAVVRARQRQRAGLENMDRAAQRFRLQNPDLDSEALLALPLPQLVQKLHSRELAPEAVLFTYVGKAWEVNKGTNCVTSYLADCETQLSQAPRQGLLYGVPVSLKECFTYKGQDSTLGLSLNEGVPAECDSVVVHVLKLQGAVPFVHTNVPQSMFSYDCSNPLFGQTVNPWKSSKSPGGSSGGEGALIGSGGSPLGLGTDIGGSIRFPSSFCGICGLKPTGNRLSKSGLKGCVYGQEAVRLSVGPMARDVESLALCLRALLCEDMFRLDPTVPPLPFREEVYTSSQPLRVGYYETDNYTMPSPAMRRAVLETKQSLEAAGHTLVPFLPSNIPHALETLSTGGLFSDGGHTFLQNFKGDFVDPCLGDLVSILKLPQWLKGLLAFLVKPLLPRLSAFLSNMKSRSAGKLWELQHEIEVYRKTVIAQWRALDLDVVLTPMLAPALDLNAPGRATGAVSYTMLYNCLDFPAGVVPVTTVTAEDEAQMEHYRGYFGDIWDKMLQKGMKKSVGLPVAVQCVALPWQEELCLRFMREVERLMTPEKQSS
outcome.measure: pKi
Hey, just a heads up that pKi is the negative log base 10 of the concentration in molar.

# input If you can, please state the reported pKi value of `CCCCCCCC/C=C\CCCCCCCC(=O)c1ncco1` .
# output 7.00

====

target: Fatty-acid amide hydrolase 1 (Rattus norvegicus, UniProt P97612); assay: Inhibition of rat recombinant FAAH expressed in Escherichia coli
outcome.measure: Ki (µM)

Past entries and their recorded results:
# input If you can, please state the reported Ki value of `CN(C)C(=O)c1cnc(C(=O)CCc2ccc(Oc3ccccc3)cc2)o1` .
# output 0.0054

# input Now try `NC(=O)c1cccc(-c2cnc(CCCc3ccc(-c4ccccc4)cc3)o2)n1` .
# output 4

# input Now try NC(=O)c1cccc(-c2cnc(C(O)CCc3ccc(-c4ccccc4)cc3)o2)n1 (stereo not given) .
# output 20

1: COC(=O)c1ccc(-c2cnc(C(O)CCc3ccc(-c4ccccc4)cc3)o2)nc1 (stereo not given)
2: O=C(CCc1ccc(-c2ccccc2)cc1)c1ncc(-c2cccc(-c3nnn[nH]3)n2)o1
# input Of the two listed items, 1 and 2 , which carries the larger Ki figure? Use the label to indicate which entry you chose.
# output 1
(1: 1.1 µM, 2: 0.025 µM)

====

Target: Fatty-acid amide hydrolase 1 (Rattus norvegicus)
Sequence (P97612 whole entry): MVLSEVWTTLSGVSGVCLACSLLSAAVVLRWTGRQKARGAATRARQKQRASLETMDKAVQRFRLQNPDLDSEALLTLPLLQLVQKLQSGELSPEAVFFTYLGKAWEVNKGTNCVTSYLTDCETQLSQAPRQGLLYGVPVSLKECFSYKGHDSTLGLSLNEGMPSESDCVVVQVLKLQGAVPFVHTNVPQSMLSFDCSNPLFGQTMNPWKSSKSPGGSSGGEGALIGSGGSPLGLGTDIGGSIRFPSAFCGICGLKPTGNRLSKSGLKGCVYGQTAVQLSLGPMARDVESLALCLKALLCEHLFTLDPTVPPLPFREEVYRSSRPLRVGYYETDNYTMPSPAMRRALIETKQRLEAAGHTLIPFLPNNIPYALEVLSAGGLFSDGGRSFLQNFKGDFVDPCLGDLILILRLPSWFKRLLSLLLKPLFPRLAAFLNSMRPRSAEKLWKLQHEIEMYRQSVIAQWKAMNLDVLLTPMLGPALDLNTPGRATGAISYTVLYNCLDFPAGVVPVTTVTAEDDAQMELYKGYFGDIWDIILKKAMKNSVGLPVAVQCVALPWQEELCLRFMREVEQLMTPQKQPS
Experiment: Inhibition of rat recombinant FAAH expressed in Escherichia coli
outcome.measure: Ki (nM)

Past entries and their recorded results:
# input If you can, please state the reported Ki value of `CS(=O)(=O)c1cnc(C(=O)CCc2ccc(-c3ccccc3)cc2)o1` .
# output 1.2

# input Now try `O=C(CCc1ccc(-c2ccccc2)cc1)c1ncc(I)o1` .
# output 4

# input Now try `COC(=O)c1ccc(-c2cnc(CCCc3ccc(-c4ccccc4)cc3)o2)nc1` .
# output 50000

1: NC(=O)c1ccc(-c2cnc(C(=O)CCc3ccc(-c4ccccc4)cc3)o2)nc1
2: O=C(CCc1ccc(COc2ccccc2)cc1)c1ncc(C(F)(F)F)o1
3: O=C(O)c1cccc(-c2cnc(C(=O)CCc3ccc(-c4ccc(CN5CCCC5)cc4)cc3)o2)n1
# input Rank the items in ascending order with respect to Ki. Respond with an ordered listing of the labels, as requested.
# output 2, 1, 3
(2: 0.8 nM, 1: 1.3 nM, 3: 130 nM)

P: CNC(=O)c1cnc(C(=O)CCc2ccc(COc3ccccc3)cc2)o1
Q: N#Cc1cnc(C(=O)CCc2ccc(Oc3ccccc3)cc2)o1
# input Of P and Q , which shows the smaller Ki value? Use the label to indicate which entry you chose.
# output Q

I: O=C(O)c1cnc(C(=O)CCc2ccc(COc3ccccc3)cc2)o1
II: CC(C)(C)OC(=O)N1CCC(Oc2ccc(CCC(=O)c3ncc(-c4cccc(C(=O)O)n4)o3)cc2)CC1
III: COC(=O)c1cnc(C(=O)CCc2ccc(COc3ccccc3)cc2)o1
# input Rank the items in ascending order with respect to Ki. Respond with an ordered listing of the labels, as requested.
# output III, I, II
